All figures here come from ChEMBL document CHEMBL1156937.

Recorded IC50, one value per entry.
molecular target: UniProtKB P04183; test: Inhibition of human recombinant cytosolic thymidine kinase 1 assessed as inhibition of [methyl-3H]dThd phosphorylation after 30 mins by scintillation counting
Sequence (P04183 whole entry): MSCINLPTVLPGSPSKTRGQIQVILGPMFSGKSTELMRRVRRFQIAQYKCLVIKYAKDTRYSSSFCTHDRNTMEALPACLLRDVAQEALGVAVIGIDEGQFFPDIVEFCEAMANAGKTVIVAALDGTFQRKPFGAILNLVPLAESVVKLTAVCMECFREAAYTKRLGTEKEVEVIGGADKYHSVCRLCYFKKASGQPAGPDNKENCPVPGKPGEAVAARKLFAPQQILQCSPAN

Record excerpt, results attached:
Can you share its IC50? I mean this compound: "Cc1cn([C@H]2C[C@H](n3cc(CC4CCCC4)nn3)[C@@H](CO)O2)c(=O)[nH]c1=O"
177 µM

Queued: "Cc1cn([C@H]2C[C@H](n3nncc3-c3ccccc3)[C@@H](CO)O2)c(=O)[nH]c1=O"
≥ 500 µM

Queued: "Cc1cn([C@H]2C[C@H](n3cc(-c4ccccc4)nn3)[C@@H](CO)O2)c(=O)[nH]c1=O"
54 µM

Next:
Can you share its IC50? I mean this compound: "O=c1[nH]c(=O)n([C@H]2C[C@H](n3cc(-c4ccc(Cl)cc4)nn3)[C@@H](CO)O2)cc1/C=C/Br"
> 500 µM

Queued: "Cc1cn([C@H]2C[C@H](n3nncc3-c3ccc(Cl)cc3)[C@@H](CO)O2)c(=O)[nH]c1=O"
109 µM

====

target: UniProt:O00142; experiment: Uncompetitive inhibition of human recombinant mitochondrial thymidine kinase 2 using thymidine as substrate by Lineweaver-Burke plotting; settings: in the assay text read “using ATP as substrate” for “using thymidine as substrate”
PROPERTY_LABEL: Ki (nM)
Give the value, in units of nM, as a plain number.

Can you share its Ki? I mean this molecule: "O=c1[nH]c(=O)n([C@H]2C[C@H](n3cc(-c4ccc(Cl)cc4)nn3)[C@@H](CO)O2)cc1/C=C/Br"
410

====

molecular target: Deoxynucleoside kinase (Drosophila melanogaster); assay: Inhibition of Drosophila melanogaster multifunctional deoxynucleoside kinase assessed as inhibition of [methyl-3H]dThd phosphorylation after 30 mins by scintillation counting
Recorded pIC50, one value per entry.
// pIC50: -log10(molar conc.)

Record excerpt, results attached:
Can you share its pIC50? I mean this compound: "O=c1[nH]c(=O)n([C@H]2C[C@H](n3cc(-c4ccc(Cl)cc4)nn3)[C@@H](CO)O2)cc1/C=C/Br"
6.34

Queued: "Cc1cn([C@H]2C[C@H](n3nncc3-c3ccc(Cl)cc3)[C@@H](CO)O2)c(=O)[nH]c1=O"
4.52

Queued: "O=c1[nH]c(=O)n([C@H]2C[C@H](n3cc(-c4ccccc4)nn3)[C@@H](CO)O2)cc1/C=C/Br"
5.54

Queued: "Cc1cn([C@H]2C[C@H](n3cc(CC4CCCC4)nn3)[C@@H](CO)O2)c(=O)[nH]c1=O"
5.52

Queued: "Cc1cn([C@H]2C[C@H](n3ccnn3)[C@@H](CO)O2)c(=O)[nH]c1=O"
4.40

Next:
Can you share its pIC50? I mean this compound: "Cc1cn([C@H]2C[C@H](n3cc(-c4ccc(Cl)c(Cl)c4)nn3)[C@@H](CO)O2)c(=O)[nH]c1=O"
6.00

Queued: "Cc1cn([C@H]2C[C@H](n3cc(-c4ccc(Cl)cc4)nn3)[C@@H](CO)O2)c(=O)[nH]c1=O"
5.74

====

Target: Thymidine kinase 2, mitochondrial (Homo sapiens)
Sequence (O00142 whole entry): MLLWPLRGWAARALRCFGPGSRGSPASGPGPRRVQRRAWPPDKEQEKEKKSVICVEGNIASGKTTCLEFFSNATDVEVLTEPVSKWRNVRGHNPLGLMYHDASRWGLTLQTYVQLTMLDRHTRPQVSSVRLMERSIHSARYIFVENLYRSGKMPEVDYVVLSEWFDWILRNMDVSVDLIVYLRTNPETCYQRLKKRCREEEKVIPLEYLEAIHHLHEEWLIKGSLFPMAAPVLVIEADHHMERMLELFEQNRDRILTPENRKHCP
Test: Inhibition of thymidine kinase 2
PROPERTY_LABEL: pKi
// pKi: -log10(molar conc.)

Can you share its pKi? I mean this compound: "CCCCCC(=O)N[C@H]1C[C@H](n2cc(C)c(=O)[nH]c2=O)O[C@@H]1CO"
6.82

Queued: O=c1[nH]c(=O)n([C@@H]2O[C@H](CO)[C@@H](O)C2O)cc1/C=C/Br (single isomer, unassigned) [SORIVUDINE]
4.98

====

molecular target: Thymidine kinase 2, mitochondrial (Homo sapiens); experiment: Inhibition of human recombinant mitochondrial thymidine kinase 2 assessed as inhibition of [methyl-3H]dThd phosphorylation after 30 mins by scintillation counting
pIC50: −log10 of the molar value.
Returns one of condition met or condition not met; condition met when pIC50 is >= 7.

Worked examples follow.
Is pIC50 at least 7? Consider "Cc1cn([C@H]2C[C@H](n3cc(-c4ccc(Cl)cc4)nn3)[C@@H](CO)O2)c(=O)[nH]c1=O"
condition met

Queued: "Cc1cn([C@H]2C[C@H](n3cc(-c4ccccc4)nn3)[C@@H](CO)O2)c(=O)[nH]c1=O"
condition not met

Queued: "Cc1cn([C@H]2C[C@H](n3cc(-c4ccc(Cl)c(Cl)c4)nn3)[C@@H](CO)O2)c(=O)[nH]c1=O"
condition met

Queued: "Cc1cn([C@H]2C[C@H](NC(=S)Nc3ccc(Cl)c(C(F)(F)F)c3)[C@@H](COC(c3ccccc3)(c3ccccc3)c3ccccc3)O2)c(=O)[nH]c1=O"
condition not met

Next compound, please.
Is pIC50 at least 7? Consider "Cc1cn([C@H]2C[C@H](n3nncc3-c3ccc(Cl)cc3)[C@@H](CO)O2)c(=O)[nH]c1=O"
condition not met

====

target: Thymidine kinase 2, mitochondrial (Homo sapiens); test: Inhibition of human recombinant mitochondrial thymidine kinase 2 assessed as inhibition of [methyl-3H]dThd phosphorylation after 30 mins by scintillation counting
Recorded pIC50, one value per entry.
// pIC50: -log10(molar conc.)

Record excerpt, results attached:
Can you share its pIC50? I mean this compound: "CCCCc1cn([C@H]2C[C@H](n3cc(C)c(=O)[nH]c3=O)O[C@@H]2CO)nn1"
6.64

Queued: "Cc1cn([C@H]2C[C@H](n3nncc3-c3ccccc3)[C@@H](CO)O2)c(=O)[nH]c1=O"
5.96

Queued: "O=c1[nH]c(=O)n([C@H]2C[C@H](n3cc(-c4ccc(Cl)cc4)nn3)[C@@H](CO)O2)cc1/C=C/Br"
7.44

Queued: "Cc1cn([C@H]2C[C@H](n3cc(Cc4ccccc4)nn3)[C@@H](CO)O2)c(=O)[nH]c1=O"
6.52

Queued: "O=c1[nH]c(=O)n([C@H]2C[C@H](n3cc(-c4ccccc4)nn3)[C@@H](CO)O2)cc1/C=C/Br"
6.60

Queued: "Cc1cn([C@H]2C[C@H](n3ccnn3)[C@@H](CO)O2)c(=O)[nH]c1=O"
5.33

Queued: "Cc1cn([C@H]2C[C@H](n3cc(CC4CCCC4)nn3)[C@@H](CO)O2)c(=O)[nH]c1=O"
6.82

Next:
Can you share its pIC50? I mean this compound: "Cc1cn([C@H]2C[C@H](n3cc(-c4ccccn4)nn3)[C@@H](CO)O2)c(=O)[nH]c1=O"
5.89

====

biological target: UniProt:P04183; experiment: Inhibition of human recombinant cytosolic thymidine kinase 1 assessed as inhibition of [methyl-3H]dThd phosphorylation after 30 mins by scintillation counting
Binarize IC50 at 300 µM; below is class 1, at or above is class 0.

Answer whether the compound "Cc1cn([C@H]2C[C@H](NC(=S)Nc3ccc(Cl)c(C(F)(F)F)c3)[C@@H](COC(c3ccccc3)(c3ccccc3)c3ccccc3)O2)c(=O)[nH]c1=O" has IC50 strictly less than 300 µM
class 0

Next:
Answer whether the compound "Cc1cn([C@H]2C[C@H](n3cc(Cc4ccccc4)nn3)[C@@H](CO)O2)c(=O)[nH]c1=O" has IC50 strictly less than 300 µM
class 0

Queued: "Cc1cn([C@H]2C[C@H](n3cc(-c4ccccn4)nn3)[C@@H](CO)O2)c(=O)[nH]c1=O"
class 0

Queued: "CCCCc1cn([C@H]2C[C@H](n3cc(C)c(=O)[nH]c3=O)O[C@@H]2CO)nn1"
class 0

Queued: "O=c1[nH]c(=O)n([C@H]2C[C@H](n3cc(-c4ccccc4)nn3)[C@@H](CO)O2)cc1/C=C/Br"
class 0

Queued: "Cc1cn([C@H]2C[C@H](n3cc(-c4ccc(Cl)cc4)nn3)[C@@H](CO)O2)c(=O)[nH]c1=O"
class 1

Queued: "Cc1cn([C@H]2C[C@H](n3ccnn3)[C@@H](CO)O2)c(=O)[nH]c1=O"
class 0

Queued: "Cc1cn([C@H]2C[C@H](NC(=S)Nc3ccc(Cl)c(C(F)(F)F)c3)[C@@H](CO)O2)c(=O)[nH]c1=O"
class 0

Queued: "Cc1cn([C@H]2C[C@H](n3cc(-c4ccc(Cl)c(Cl)c4)nn3)[C@@H](CO)O2)c(=O)[nH]c1=O"
class 1

====

Recorded pIC50, one value per entry.
biological target: Deoxynucleoside kinase (Drosophila melanogaster, UniProt Q9XZT6); assay: Inhibition of Drosophila melanogaster multifunctional deoxynucleoside kinase assessed as inhibition of [methyl-3H]dThd phosphorylation after 30 mins by scintillation counting
Sequence (Q9XZT6 whole entry): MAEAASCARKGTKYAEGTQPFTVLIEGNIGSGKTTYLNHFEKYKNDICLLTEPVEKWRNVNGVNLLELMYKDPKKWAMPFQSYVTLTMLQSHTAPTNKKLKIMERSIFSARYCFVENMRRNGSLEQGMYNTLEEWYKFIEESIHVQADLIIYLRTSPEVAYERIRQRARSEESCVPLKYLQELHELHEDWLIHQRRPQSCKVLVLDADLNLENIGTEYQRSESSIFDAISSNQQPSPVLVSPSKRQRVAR
// pIC50: -log10(molar conc.)

Record excerpt, results attached:
Can you share its pIC50? I mean this compound: "Cc1cn([C@H]2C[C@H](n3nncc3-c3ccccc3)[C@@H](CO)O2)c(=O)[nH]c1=O"
4.77

Queued: "Cc1cn([C@H]2C[C@H](n3cc(Cc4ccccc4)nn3)[C@@H](CO)O2)c(=O)[nH]c1=O"
5.41

Queued: "Cc1cn([C@H]2C[C@H](n3cc(-c4ccccc4)nn3)[C@@H](CO)O2)c(=O)[nH]c1=O"
5.66

Next:
Can you share its pIC50? I mean this compound: "CCCCc1cn([C@H]2C[C@H](n3cc(C)c(=O)[nH]c3=O)O[C@@H]2CO)nn1"
5.39

Queued: "Cc1cn([C@H]2C[C@H](n3cc(-c4ccccn4)nn3)[C@@H](CO)O2)c(=O)[nH]c1=O"
5.42
